Molecular target: T1, cynomolgus monkey KLK5 (cynomolgus monkey, UniProt Q9Y337 67-293 (human entry))
T1 construct: also called cyno KLK5
T1 chain: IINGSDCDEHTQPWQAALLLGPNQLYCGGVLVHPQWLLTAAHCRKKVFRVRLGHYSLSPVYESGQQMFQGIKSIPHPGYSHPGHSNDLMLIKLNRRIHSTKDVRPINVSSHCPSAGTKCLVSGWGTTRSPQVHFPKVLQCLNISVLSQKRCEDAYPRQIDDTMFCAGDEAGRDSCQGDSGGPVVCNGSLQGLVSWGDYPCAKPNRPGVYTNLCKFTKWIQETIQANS
Assay: SPR, one-armed monovalent antibody
Collected kon values appear next to each entry.
Please reply with the bare figure in M⁻¹ s⁻¹ and do not write the unit itself.

Guide cases for kon, answers given:
OA.hu.10C5.N53V.S34K.S95F (antibody, V domains shown, One-armed (OA) monovalent anti-KLK5 antibody with a human IgG1 Fc, with Q38E/Q39K; constant regions and dummy Fc chain not specified) VH: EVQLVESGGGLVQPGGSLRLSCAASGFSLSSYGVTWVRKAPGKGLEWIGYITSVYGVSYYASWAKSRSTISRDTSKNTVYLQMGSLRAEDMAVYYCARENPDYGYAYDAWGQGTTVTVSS VL: AIRMTQSPSSFSASTGDRVTITCQASESISNELKWYQEKPGKAPKLLIYYASTLASGVPSRFSGSGSGTDFTLTISSLQPEDFATYYCAQGFGSFGVENVFGGGTKVEIK :: 9.41e+06
OA.hu.10C5.N53V.F92Y (antibody, V domains shown, One-armed (OA) monovalent anti-KLK5 antibody with a human IgG1 Fc, with Q38E/Q39K; constant regions and dummy Fc chain not specified) VH: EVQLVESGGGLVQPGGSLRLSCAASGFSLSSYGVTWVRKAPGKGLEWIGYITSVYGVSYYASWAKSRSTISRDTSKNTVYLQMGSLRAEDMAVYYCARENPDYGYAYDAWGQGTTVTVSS VL: AIRMTQSPSSFSASTGDRVTITCQASESISNELSWYQEKPGKAPKLLIYYASTLASGVPSRFSGSGSGTDFTLTISSLQPEDFATYYCAQGYGSSGVENVFGGGTKVEIK :: 1.82e+07
OA.hu.10C5.N53V.S34K (antibody, V domains shown, One-armed (OA) monovalent anti-KLK5 antibody with a human IgG1 Fc, with Q38E/Q39K; constant regions and dummy Fc chain not specified) VH: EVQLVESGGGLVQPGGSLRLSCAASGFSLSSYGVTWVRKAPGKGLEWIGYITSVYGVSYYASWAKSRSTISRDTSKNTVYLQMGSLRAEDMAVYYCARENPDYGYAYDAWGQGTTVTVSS VL: AIRMTQSPSSFSASTGDRVTITCQASESISNELKWYQEKPGKAPKLLIYYASTLASGVPSRFSGSGSGTDFTLTISSLQPEDFATYYCAQGFGSSGVENVFGGGTKVEIK :: 5.48e+06

Here is another binder to look at.
Reported kon for OA.hu.10C5.N53V.F92Y.S95F (antibody, V domains shown, One-armed (OA) monovalent anti-KLK5 antibody with a human IgG1 Fc, with Q38E/Q39K; constant regions and dummy Fc chain not specified) VH: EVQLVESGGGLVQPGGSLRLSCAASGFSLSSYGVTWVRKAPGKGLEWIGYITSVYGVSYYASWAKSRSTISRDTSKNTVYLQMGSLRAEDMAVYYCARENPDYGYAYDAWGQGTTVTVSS VL: AIRMTQSPSSFSASTGDRVTITCQASESISNELSWYQEKPGKAPKLLIYYASTLASGVPSRFSGSGSGTDFTLTISSLQPEDFATYYCAQGYGSFGVENVFGGGTKVEIK was 1.52e+07
